target: T1, human transferrin receptor (recombinant, for surface plasmon resonance) (human, UniProt P02786 89-760); experiment: SPR 25C
T1 construct: also called huTfR; human transferrin receptor-biotinylated
T1 sequence (P02786 89-760 limits assumed): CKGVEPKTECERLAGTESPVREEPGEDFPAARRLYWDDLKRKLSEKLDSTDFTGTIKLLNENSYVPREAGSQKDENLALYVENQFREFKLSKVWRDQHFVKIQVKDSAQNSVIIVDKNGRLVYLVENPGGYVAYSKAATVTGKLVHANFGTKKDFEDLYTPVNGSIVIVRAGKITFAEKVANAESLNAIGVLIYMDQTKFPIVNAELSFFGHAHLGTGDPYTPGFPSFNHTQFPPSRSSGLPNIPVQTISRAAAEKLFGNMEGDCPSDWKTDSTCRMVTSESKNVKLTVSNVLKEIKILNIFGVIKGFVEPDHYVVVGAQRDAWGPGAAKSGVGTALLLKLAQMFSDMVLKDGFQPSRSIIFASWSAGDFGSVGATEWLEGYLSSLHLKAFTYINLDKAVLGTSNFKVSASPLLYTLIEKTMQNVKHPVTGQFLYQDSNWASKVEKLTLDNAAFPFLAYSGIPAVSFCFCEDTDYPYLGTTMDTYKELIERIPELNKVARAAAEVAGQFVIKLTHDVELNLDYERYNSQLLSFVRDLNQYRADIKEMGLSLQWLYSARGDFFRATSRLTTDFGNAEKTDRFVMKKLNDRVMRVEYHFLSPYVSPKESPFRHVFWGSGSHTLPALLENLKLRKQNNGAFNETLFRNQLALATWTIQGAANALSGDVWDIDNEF
Threshold check on koff: at or above 0.002 s⁻¹ gives condition met, strictly below gives condition not met.

binder | assigned label
2/99 VH0(rb)/VL9-NYA (antibody, V domains shown) VH: QSMEESGGRLVTPGTPLTLTCTVSGFSLSSYAMSWVRQAPGKGLEWIGYIWSGGSTDYASWAKGRFTISKTSTTVDLKITSPTTEDTATYFCARRYGTSYPDYGDANGFDPWGPGTLVTVSS VL: AIQLTQSPSSLSASVGDRVTITCRASQSISSYLAWYQQKPGKAPKLLIYRASTLASGVPSRFSGSGSGTDFTLTISSLQPEDFATYYCQQNYASSNVDNTFGGGTKVEI | condition not met
2/99 VH16/VL3 (antibody, V domains shown) VH: QQLQESGPGLVKPSETLSLTCTVSGFSLSSYAMSWVRQPPGKGLEWIGYIWSGGSTDYNPSLKSRVTISVDTSKNQVSLKLSSVTAADTAVYYCARRYGTSYPDYGDANGFDPWGPGTLVTVSS VL: AYQMTQSPSSLSASVGDRVTITCRASQSISSYLNWYQQKPGKAPKLLIYRASTLASGVPSRFSGSGSGTDFTLTISSLQPEDFATYYCQQSYSSSNVDNTFGGGTKVEIK | condition not met
2/99 VH11/VL15 (antibody, V domains shown) VH: QQLLESGGGLVQPGGSLRLSCAASGFSLSSYAMSWVRQAPGKGLEWVGYIWSGGSTDYADSVKGRFTISRDNSKNTLYLQMNSLRAEDTAVYYCARRYGTSYPDYGDANGFDPWGQGTLVTVSS VL: DIVMTQSPDSLAVSLGERATINCKSSQSISSYLIWYQQKPGQPPKLLIYRASTLASGVPDRFSGSGSGTDFTLTISSLQAEDVAVYYCQQAYSSSNVDNTFGGGTKVEIK | condition met
2/99 VH15/VL15 (antibody, V domains shown) VH: QQLQESGPGLVKPSETLSLTCTVSGFSLSSYAMSWVRQPPGKGLEWIGYIWSGGSTDYNPSLKSRVTISVDTSKNQVSLKLSSVTAADTAVYYCARRYGTSYPDYGDANGFDPWGQGTLVTVSS VL: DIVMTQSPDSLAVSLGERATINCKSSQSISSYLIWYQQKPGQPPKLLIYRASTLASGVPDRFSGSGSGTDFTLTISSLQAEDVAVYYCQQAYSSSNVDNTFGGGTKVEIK | condition met
2/99 VH2/VL10 (antibody, V domains shown) VH: EVQLVETGGGLIQPGGSLRLSCAASGFSLSSYAMSWVRQAPGKGLEWVGYIWSGGSTDYADSVKGRFTISRDNSKNTLYLQMNSLRAEDTAVYYCARRYGTSYPDYGDANGFDPWGQGTLVTVSS VL: DIQMTQSPSSLSASVGDRVTITCRASQSISSYLSWYQQKPGKAPKLLIYRASTLASGVPSRFSGSRSGTDFTLTISSLQPEDFATYYCQQSYSSSNVDNTFGGGTKVEIK | condition met
